test system: Culex pipiens pallens; test: Larvicidal activity against fourth-instar larval stage of Culex pipiens pallens (mosquito) assessed as mortality at 0.0025 mg/l at 25 +/-1 degC after 8 days; assay type: functional; settings: 192 h
Each record here notes measured mortality at 0.0025 µg/mL.
OBSERVABLE: mortality at 0.0025 µg/mL (%)

1. CC(C)(C)O/N=C/c1ccc(NC(=O)NC(=O)c2c(F)cccc2F)cc1; 90
2. CC1CCC(C(C)C)C(O/N=C/c2ccc(NC(=O)NC(=O)c3c(F)cccc3F)cc2)C1 (stereo not drawn); 100
3. O=C(NC(=O)c1c(F)cccc1F)Nc1ccc(/C=N/OCC2CC2)cc1; 60
4. CCCC(C)O/N=C/c1ccc(NC(=O)NC(=O)c2c(F)cccc2F)cc1 (stereo not drawn); 10
5. CCC(C)O/N=C/c1ccc(NC(=O)NC(=O)c2c(F)cccc2F)cc1 (stereo not drawn); 10
6. CC(C)O/N=C/c1ccc(NC(=O)NC(=O)c2c(F)cccc2F)cc1; 15
7. O=C(NC(=O)c1c(F)cccc1F)Nc1ccc(/C=N/OCC(F)(F)F)cc1; 70
8. O=C(NC(=O)c1c(F)cccc1F)Nc1ccc(/C=N/OC(C(F)(F)F)C(F)(F)F)cc1; 100
